Each recorded value in this set is attributed to paper PMC8694685.

ASSAY_PROCEDURE: In vivo pharmacokinetics study, tail vein
Parameters: species or system SD rats
CONDITION_SET: SD, rat, plasma; intravenous, 17 mg kg^−1 Cur, n = 3
MEASURE: half-life (min)
// return numeric value only (unit: min, not printed)

q: Would you kindly share the measured half-life for COc1cc(/C=C/C(=O)CC(=O)/C=C/c2ccc(O)c(OC)c2)ccc1O [Cur, Curcumin] ?
a: 48.1

###

ASSAY_PROCEDURE: In vivo pharmacokinetics study, tail vein
Set-up: species or system SD rats
CONDITION_SET: SD, rat, plasma; intravenous, 17 mg kg^−1 Cur, n = 3
MEASURE: MRT (min)
// return numeric value only (unit: min, not printed)

q: Would you kindly share the measured MRT for COc1cc(/C=C/C(=O)CC(=O)/C=C/c2ccc(O)c(OC)c2)ccc1O ?
a: 45.9
